- target system: Human AMPK α2β2γ1 (Homo sapiens, UniProt O43741+P54646)
- Construct: The full length cDNAs of human AMPK β2 (NM_005399.3) and human AMPK α2 (NM_006252.3); The full length cDNAs of human AMPK β2 (NM_005399.3); the full length cDNA of human AMPK γ1 (NM_002733.3) had been inserted into pET28b(+); 6×His (N); made in house; host or cells: Escherichia coli BL21 CodonPlus (DE3)-RIL
- Sequence (P54646 whole entry): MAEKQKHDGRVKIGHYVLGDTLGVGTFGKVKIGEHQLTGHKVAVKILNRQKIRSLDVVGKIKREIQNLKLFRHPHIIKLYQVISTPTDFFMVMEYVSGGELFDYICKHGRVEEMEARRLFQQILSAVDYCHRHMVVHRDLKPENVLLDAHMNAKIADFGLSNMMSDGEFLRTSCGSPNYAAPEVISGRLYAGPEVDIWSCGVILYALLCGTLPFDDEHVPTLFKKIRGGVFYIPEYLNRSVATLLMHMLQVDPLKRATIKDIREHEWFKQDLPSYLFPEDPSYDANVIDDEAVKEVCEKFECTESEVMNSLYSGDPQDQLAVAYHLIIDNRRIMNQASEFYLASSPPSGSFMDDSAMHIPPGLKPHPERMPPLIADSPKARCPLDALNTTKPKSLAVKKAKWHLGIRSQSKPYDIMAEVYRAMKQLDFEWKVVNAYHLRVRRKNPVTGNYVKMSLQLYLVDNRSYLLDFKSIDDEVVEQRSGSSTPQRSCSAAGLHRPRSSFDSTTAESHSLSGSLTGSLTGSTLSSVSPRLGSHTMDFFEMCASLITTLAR
- Sequence (O43741 whole entry): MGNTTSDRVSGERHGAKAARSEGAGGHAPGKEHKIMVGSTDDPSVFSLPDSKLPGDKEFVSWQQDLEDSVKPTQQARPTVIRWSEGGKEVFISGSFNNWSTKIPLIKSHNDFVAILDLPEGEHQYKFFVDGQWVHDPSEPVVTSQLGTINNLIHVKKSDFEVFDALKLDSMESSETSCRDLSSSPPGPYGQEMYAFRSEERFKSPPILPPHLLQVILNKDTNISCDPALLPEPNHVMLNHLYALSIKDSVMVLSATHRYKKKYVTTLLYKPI
- Sequence (P54619 whole entry partner): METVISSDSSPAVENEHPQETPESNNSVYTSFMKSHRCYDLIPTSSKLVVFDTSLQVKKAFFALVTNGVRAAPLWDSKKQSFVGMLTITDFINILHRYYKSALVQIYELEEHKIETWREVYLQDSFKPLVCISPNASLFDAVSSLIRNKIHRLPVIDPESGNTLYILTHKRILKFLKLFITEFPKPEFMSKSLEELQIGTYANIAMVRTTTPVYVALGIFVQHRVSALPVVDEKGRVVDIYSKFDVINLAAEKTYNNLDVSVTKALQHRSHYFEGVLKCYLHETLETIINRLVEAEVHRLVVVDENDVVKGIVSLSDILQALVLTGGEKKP
- assay method text: Test Example 2: activation of phosphorylated human AMPK α2β2γ1 (mobility-shift kinase assay, FL-Peptide 7)
- Type: biochemical
- measurement context: maximum rate of increase in activity within the measurement range, control = 100%; read-out: Emax
Classify as follows. Reported Emax greater than or equal to 500%: Satisfied. Reported Emax below: Not satisfied.

                                    compound   answer_label
 0  COC(=O)N1CCC(Oc2ccc(-c3ccc(-c4nc5cc(O[C@@H]6CO[C@H]7[C@@H]6OC[C@H]7O)[nH]c5cc4F)cc3)cc2)C1 (stereo partly drawn)      Satisfied
 1  O[C@@H]1CO[C@H]2[C@@H]1OC[C@H]2Oc1cc2nc(-c3ccc([C@@H]4CCCC[C@@H]4O)cc3)c(F)cc2[nH]1      Satisfied
 2  O=C(c1ccc(-c2ccc(-c3nc4cc(O[C@@H]5CO[C@H](CO)C5(F)F)[nH]c4cc3F)cc2)cc1)N1CCOCC1      Satisfied
 3  O[C@@H]1CO[C@H]2[C@@H]1OC[C@H]2Oc1cc2nc(-c3ccc(-c4ccc(C5=NCCN5)cc4)cc3)c(F)cc2[nH]1  Not satisfied
 4  COC(=O)NC1CCN(c2ccc(-c3nc4cc(O[C@@H]5CO[C@H](CO)C5)[nH]c4cc3F)cc2)CC1      Satisfied
 5  CN(C)S(=N)(=O)c1ccc(-c2ccc(-c3nc4cc(O[C@@H]5CO[C@H]6[C@@H]5OC[C@H]6O)[nH]c4cc3F)cc2)cc1 (stereo partly drawn)  Not satisfied
 6  O=C(C1CCN(c2ccc(-c3nc4cc(O[C@@H]5CO[C@H]6[C@@H]5OC[C@H]6O)[nH]c4cc3F)cc2)CC1)N1CCCC1      Satisfied
 7  O[C@@H]1CO[C@H]2[C@@H]1OC[C@H]2Oc1cc2nc(-c3ccc(-c4ccc(OC5CNC5)cc4)cc3)c(F)cc2[nH]1  Not satisfied
 8  Clc1cc2[nH]c(O[C@H]3CCOC3)cc2nc1-c1ccc(-c2ccc(OC3CCNC3)cc2)cc1 (stereo partly drawn)  Not satisfied
 9  CS(C)(=O)=Nc1ccc(-c2ccc(-c3nc4cc(O[C@H]5CCOC5)[nH]c4cc3Cl)cc2)cc1  Not satisfied
10  O=C(Nc1ccc(-c2ccc(-c3nc4cc(O[C@@H]5CO[C@H]6[C@@H]5OC[C@H]6O)[nH]c4cc3F)cc2)cc1)[C@@H]1C[C@@H]1F      Satisfied
11  CS(C)(=O)=Nc1ccc(-c2ccc(-c3nc4cc(O[C@H]5CO[C@H](CO)[C@@H](O)C5)[nH]c4cc3F)cc2)cc1  Not satisfied
12  OC1CCN(c2ccc(-c3ccc(-c4nc5cc(O[C@@H]6CO[C@H]7[C@@H]6OC[C@H]7O)[nH]c5cc4F)cc3)cc2)C1 (stereo partly drawn)  Not satisfied
13  CNC(=O)CCOc1ccc(-c2ccc(-c3nc4cc(O[C@@H]5CO[C@H]6[C@@H]5OC[C@H]6O)[nH]c4cc3F)cc2)cc1      Satisfied
14  CCP(=O)(CC)c1ccc(-c2ccc(-c3nc4cc(O[C@@H]5CO[C@H](CO)C5)[nH]c4cc3F)cc2)cc1      Satisfied
15  CS(C)(=O)=Nc1ccc(-c2ccc(-c3nc4cc(O[C@@H]5CC[C@@H](CO)OC5)[nH]c4cc3F)cc2)cc1  Not satisfied
16  CN(C)C(=O)OC1CCN(c2ccc(-c3nc4cc(O[C@@H]5CO[C@H]6[C@@H]5OC[C@H]6O)[nH]c4cc3F)cc2)CC1      Satisfied
17  CC(=O)N(C)c1ccc(-c2ccc(-c3nc4cc(O[C@@H]5CO[C@H]6[C@@H]5OC[C@H]6O)[nH]c4cc3F)cc2)cc1  Not satisfied
18  COCCOC1CCN(c2ccc(-c3nc4cc(O[C@@H]5CO[C@H]6[C@@H]5OC[C@H]6O)[nH]c4cc3F)cc2)CC1  Not satisfied
19  COCCOc1ccc(-c2ccc(-c3nc4cc(O[C@@H]5CO[C@H]6[C@@H]5OC[C@H]6O)[nH]c4cc3F)cc2)nc1      Satisfied
20  CNC(=O)c1ccc(-c2ccc(-c3nc4cc(O[C@@H]5CO[C@H](CO)C5)[nH]c4cc3F)cc2)cc1      Satisfied
21  COC(=O)NC1CC=C(c2ccc(-c3nc4cc(O[C@@H]5CO[C@H]6[C@@H]5OC[C@H]6O)[nH]c4cc3F)cc2)CC1 (stereo partly drawn)  Not satisfied
